- EXPERIMENTAL_SYSTEM: T1, human CD71 extracellular domain (human, UniProt P02786 89-760)
- T1 construct: also called hCD71; CD71-ECD
- T1 sequence (P02786 89-760): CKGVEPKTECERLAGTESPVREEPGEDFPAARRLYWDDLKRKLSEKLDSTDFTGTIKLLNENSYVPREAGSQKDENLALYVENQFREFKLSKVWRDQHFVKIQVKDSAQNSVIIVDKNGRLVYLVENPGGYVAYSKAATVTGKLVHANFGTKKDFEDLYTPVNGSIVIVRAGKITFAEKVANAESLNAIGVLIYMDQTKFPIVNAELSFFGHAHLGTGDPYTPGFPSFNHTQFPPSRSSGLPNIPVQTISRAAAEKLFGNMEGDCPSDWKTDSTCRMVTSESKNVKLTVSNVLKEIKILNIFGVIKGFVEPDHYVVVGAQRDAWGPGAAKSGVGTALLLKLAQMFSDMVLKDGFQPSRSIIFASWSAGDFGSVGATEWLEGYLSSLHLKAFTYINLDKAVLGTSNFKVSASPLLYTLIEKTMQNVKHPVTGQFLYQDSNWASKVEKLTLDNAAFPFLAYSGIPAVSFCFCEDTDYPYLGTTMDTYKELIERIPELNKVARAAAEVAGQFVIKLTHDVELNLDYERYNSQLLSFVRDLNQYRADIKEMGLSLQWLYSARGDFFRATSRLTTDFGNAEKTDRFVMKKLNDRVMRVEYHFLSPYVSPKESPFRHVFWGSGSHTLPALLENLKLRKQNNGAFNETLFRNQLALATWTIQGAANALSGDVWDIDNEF
- MEASUREMENT_NOTES: primary ELISA; note: test concentration or dose not given here
MEASUREMENT_NAME: RLU (RLU)
Give a bare numeral; the unit RLU is implied.

Ask: Identify RLU associated with the binder CD71-binding FN3 domain SEQ ID NO 360 (designed binder) MLPAPKNLVVSRVTEDSARLSWTAPDAAFDSFFIGYLEPQPPGEAISLYVPGSERSYDLTGLKPGTEYNVTIQGVKGGFPSHPLLAVFTT
Reply: 5.78e+06

Ask: Identify RLU associated with the binder CD71-binding FN3 domain SEQ ID NO 434 (designed binder) MLPAPKNLVVSRVTEDSARLSWTAPDAAFDSFFIGYLEPQPPGEAIGLQVPGSERSYDLTGLKPGTEYNVTIQGVKGGFPSDPLQAIFTT
Reply: 3.13e+06

Ask: Identify RLU associated with the binder CD71-binding FN3 domain SEQ ID NO 398 (designed binder) MLPAPKNLVVSRVTEDSARLSWTAPDAAFDSFFIGYLEPQPPGEAIYLTVPGSERSYDLTGLKPGTEYNVTIQGVKGGFPSKPLTANFTT
Reply: 2.12e+06

Ask: Identify RLU associated with the binder CD71-binding FN3 domain SEQ ID NO 436 (designed binder) MLPAPKNLVVSRVTEDSARLSWTAPDAAFDSFFIGYLEPQPPGEAIHLLVPGSERSYDLTGLKPGTEYNVTIQGVKGGFPSEPLWAKFTT
Reply: 4.46e+06
